// values below are reported Critical relative humidity (%)
test: Tests for hygroscopicity (critical relative humidity); assay type: physicochemical; details: stored at 30° C., relative humidities 32 to 91%, until steady state; calculated from increases or decreases in moisture content; hydrochloride
Answer in %, number only, no unit symbol.

Worked examples follow.
compound	readingUnit	valueReported
COc1cccc2c1C(=O)c1c(O)c3c(c(O)c1C2=O)CC(O)(C(C)=O)CC3OC1CC(N)C(O)C(C)O1.Cl (stereo not drawn) [Ex.5, DM hydrochloride]	%	29
COc1cccc2c1C(=O)c1c(O)c3c(c(O)c1C2=O)CC(O)(C(C)=O)CC3OC1CC(N)C(O)C(C)O1.Cl (stereo not drawn) [Ex.1, DM hydrochloride]	%	34

Q. # lookup: Critical relative humidity (%) of COc1cccc2c1C(=O)c1c(O)c3c(c(O)c1C2=O)CC(O)(C(C)=O)CC3OC1CC(N)C(O)C(C)O1.Cl (stereo not drawn) [Ex.7, DM hydrochloride]
A. 41
